Where a name gives a salt, the structure may show the parent alone.
measurementType: melting point

compound | obsValue
NCC1Cc2cccc(-c3ccccc3F)c2O1 (single isomer, unassigned; (-)) (as salt: hydrochloride) [Example 52] | 224 to 225 °C
Cc1cccc(C)c1-c1cccc2c1OC(CN)C2 (single isomer, unassigned; (-)) (as salt: hydrochloride) [Example 57] | 244 to 247 °C
NCC1Cc2c(cccc2-c2ccccc2)O1 (racemic) (as salt: hydrochloride) [Example 1] | 229 to 230 °C
NCC1Cc2cccc(CCc3ccccc3)c2O1 (racemic) (as salt: hydrochloride) | 155 to 157 °C
Cc1cccc(-c2cc(Cl)cc3c2OC(CN)C3)c1 (racemic) (as salt: hydrochloride) | 268 to 271 °C
NCC1Cc2cc(F)cc(-c3ccccc3C(F)(F)F)c2O1 (single isomer, unassigned; (+)) (as salt: hydrochloride) [Example 152] | 193 to 197 °C
COc1ccc2c(c1)OC(CN)C2 (racemic) (as salt: hydrochloride) | > 220 °C
NCC1Cc2cccc(-c3ccc(Cl)cc3)c2O1 (racemic) (as salt: hydrochloride) [Example 76] | 212 to 214 °C
NCC1Cc2cccc(-c3ccccc3C(F)(F)F)c2O1 (racemic) (as salt: hydrochloride) [Example 53] | 204 to 205 °C
CC1(CN)Cc2cc(Cl)cc(-c3ccccc3)c2O1 (racemic) (as salt: hydrochloride) | 222 to 225 °C
Cc1ccccc1-c1cccc2c1OC(CN)C2 (racemic) (as salt: hydrochloride) [Example 47] | > 200 °C
NCC1Cc2cccc(-c3cccc(F)c3)c2O1 (single isomer, unassigned; (+)) (as salt: hydrochloride) [Example 131] | 186 to 188 °C
NCCC1Cc2cc(F)cc(-c3c(Cl)cccc3Cl)c2O1 (racemic) (as salt: hydrochloride) | 212 to 213 °C
NCC1Cc2cccc(-c3ccc(Cl)cc3Cl)c2O1 (single isomer, unassigned; (-)) (as salt: hydrochloride) [Example 149] | 203 to 206 °C
NCC1Cc2cccc(-c3ccccc3F)c2O1 (racemic) (as salt: hydrochloride) [Example 50] | 244 to 246 °C
NCC1Cc2cc(Cl)cc(C3CCCCC3)c2O1 (racemic) (as salt: hydrochloride) | 210 to 213 °C
Cc1ccccc1-c1ccc(F)c2c1OC(CN)C2 (racemic) (as salt: hydrochloride) | 228 to 231 °C
NCC1Cc2cc(Cl)cc(-c3ccccc3)c2O1 (single isomer, unassigned; (+)) (as salt: hydrobromid) [Example 85] | 201 to 203 °C
Cc1ccccc1-c1cccc2c1OC(CN)C2 (single isomer, unassigned; (-)) (as salt: hydrochloride) [Example 49] | 208 to 209 °C

----------
Below, each entry is listed alongside its reported pEC50.
Biological target: human 5-HT2C receptor (Homo sapiens)
Assay: 5-HT2C receptor-stimulated calcium mobilization (FLIPR) in CHO cells
Format: cell-based
Settings: calcium mobilization, CHO cells stably expressing human 5-HT2C; read-out: 5-HT2C Function EC50
pEC50: −log10 of the molar value.

molecule | pEC50
CNCC1Cc2cc(OC)cc(-c3cc(Cl)ccc3Cl)c2O1 (racemic) | 7.24
CCCNCC1Cc2cc(Cl)cc(-c3c(C)cccc3C)c2O1 (racemic) | 6.14
CC(C)NCC1Cc2cc(F)cc(-c3c(Cl)cccc3Cl)c2O1 (racemic) | 6.91
Fc1cc2c(c(-c3c(Cl)cccc3Cl)c1)OC(CNCC1CC1)C2 (racemic) | 6.94
Cc1cccc(C)c1-c1cc(Cl)cc2c1OC(CN(C)C)C2 (racemic) | 6.48
Cc1cccc(C)c1-c1cc(Cl)cc2c1OC(CN1CCCC1)C2 (racemic) | 6.54
NCC1Cc2c(cccc2-c2ccccc2)O1 (racemic) [Example 1] | 6.03
NCC1Cc2cc(F)cc(-c3c(Cl)cccc3Cl)c2O1 (racemic) [Example 230] | 7.32
NCC1Cc2cc(F)cc(-c3ccsc3)c2O1 (racemic) | 6.73
NCC1Cc2cc(Cl)cc(-c3cccc(F)c3F)c2O1 (single isomer, unassigned; (-)) [Example 245] | 7.24
NCC1Cc2cccc(-c3cccc(F)c3)c2O1 (single isomer, unassigned; (+)) [Example 131] | 7.47
NCC1Cc2cc(F)cc(-c3cccnc3)c2O1 (single isomer, unassigned; (+)) [Example 208] | 9.44
CNCC1Cc2cc(C)cc(-c3cccc(Cl)c3)c2O1 (racemic) | 7.15
COc1cccc(-c2cccc3c2OC(CN)C3)c1 (single isomer, unassigned; (+)) [Example 133] | 7.18
CNCC1Cc2cccc(-c3ccc(OC)cc3)c2O1 (racemic) | 7.03
CC(C)(C)c1cc(Cl)cc2c1OC(CN)C2 (single isomer, unassigned; (-)) [Example 28] | 7.11
NCC1Cc2cccc(-c3c(Cl)cc(Cl)cc3Cl)c2O1 (racemic) | 9.70
CNCC1Cc2cc(F)cc(-c3cccc(OC)c3OC)c2O1 (single isomer, unassigned; (+)) [Example 569] | 8.22
Cc1ccccc1-c1ccc(F)c2c1OC(CN)C2 (racemic) | 6.08
CNCC1Cc2cc(OC)cc(-c3cccc(Cl)c3Cl)c2O1 (racemic) | 6.47
Fc1cc2c(c(-c3c(Cl)cccc3Cl)c1)OC(CN1CCOCC1)C2 (racemic) | 5.84

----------
Target: human 5-HT2C receptor (Homo sapiens, UniProt P28335)
Sequence (P28335 33-458): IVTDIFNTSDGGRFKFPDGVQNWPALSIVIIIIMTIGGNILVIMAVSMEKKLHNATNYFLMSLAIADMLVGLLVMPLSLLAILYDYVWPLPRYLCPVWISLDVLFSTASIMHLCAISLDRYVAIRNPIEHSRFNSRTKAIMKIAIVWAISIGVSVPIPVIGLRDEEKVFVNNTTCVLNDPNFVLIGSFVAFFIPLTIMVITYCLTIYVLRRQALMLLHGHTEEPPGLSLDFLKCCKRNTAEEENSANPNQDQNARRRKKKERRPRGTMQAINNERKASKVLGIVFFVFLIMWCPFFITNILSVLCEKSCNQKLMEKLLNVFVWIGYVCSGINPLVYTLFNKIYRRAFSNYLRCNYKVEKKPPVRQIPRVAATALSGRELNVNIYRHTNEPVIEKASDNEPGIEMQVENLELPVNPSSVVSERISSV
Assay: 5-HT2C receptor-stimulated calcium mobilization (FLIPR) in CHO cells;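 also: Fluo-3-AM fluorescence read on FLIPR every 1 s, agonist added after 10 baseline reads, response taken as peak minus lowest raw fluorescence count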
Type: cell-based
Conditions: CHO, percentage of the response observed with a maximally effective concentration of 5-HT; read-out: 5-HT2C Function Emax (%)
Below, each entry is listed alongside its reported Emax.

compound | Emax
COc1cccc(-c2cc(F)cc3c2OC(CN)C3)c1OC (racemic) [Example 212] | 90%
COc1cccc(-c2cc(C)cc3c2OC(CN)C3)c1OC (single isomer, unassigned; (-)) [Example 295] | 90%
COc1ccc(-c2cc(C(F)(F)F)cc3c2OC(CN)C3)c(OC)c1 (racemic) [Example 333] | 90%

----------
Counter-ions that a name gives are not always drawn.

compound | melting point
CC(C)(C)c1cccc2c1OC(CN)C2 (single isomer, unassigned; (-)) (as salt: hydrochloride) [Example 25] | 178 to 180 °C
NCC1Cc2cc(F)cc(-c3ccccc3F)c2O1 (racemic) (as salt: hydrochloride) [Example 107] | 240 to 247 °C (dec.)
NCC1Cc2cccc(-c3c(Cl)cc(Cl)cc3Cl)c2O1 (racemic) (as salt: hydrochloride) [Example 166] | > 225 °C
NCC1Cc2cc(F)cc(-c3ccccc3C(F)(F)F)c2O1 (single isomer, unassigned; (-)) (as salt: hydrochloride) [Example 151] | 183 to 188 °C
NCC1Cc2cccc(-c3c(F)cccc3F)c2O1 (racemic) (as salt: hydrochloride) [Example 139] | 219 to 222 °C
COc1cccc2c1OC(CN)C2 (racemic) (as salt: hydrochloride) [Example 7] | 168 to 171 °C

----------
Molecular target: human 5-hydroxytryptamine-2C (h5-HT2C) receptor (Homo sapiens, UniProt P28335)
Construct: expressed in transfected cells; host or cells: CHO (Chinese Hamster Ovary) cells; membranes
Assay: [125I]DOI binding to membranes of CHO cells expressing the human 5-HT2C receptor
Settings: [125I]DOI radioligand, CHO cell membranes, room temperature 60 min; read-out: 5-HT2C Affinity Ki

molecule | unitAnnotation | Ki
CNCC1Cc2cc(C)cc(-c3ccc(F)cc3)c2O1 (racemic) [Example 482] | nM | 7
COc1ccc(-c2cc(F)cc3c2OC(CN)C3)cc1 (racemic) [Example 202] | nM | 11
COc1cccc(-c2cccc3c2OC(CN)C3)c1OC (racemic) [Example 155] | nM | 9

----------
Molecular target: human 5-hydroxytryptamine-2C (h5-HT2C) receptor (Homo sapiens, UniProt P28335)
Construct: expressed in transfected cells; host or cells: CHO (Chinese Hamster Ovary) cells; membranes
Test: [125I]DOI binding to membranes of CHO cells expressing the human 5-HT2C receptor
Conditions: [125I]DOI radioligand, CHO cell membranes, room temperature 60 min; read-out: 5-HT2C Affinity Ki
pKi: −log10 of the molar value.
Below, each entry is listed alongside its reported pKi.
measurementType: pKi

molecule | measurementType | obsValue
COc1ccc(-c2cc(C(F)(F)F)cc3c2OC(CN)C3)c(OC)c1 (racemic) | pKi | 7.89
Cc1cccc(-c2cc(-c3ccccc3)cc3c2OC(CN)C3)c1 (racemic) | pKi | 6.06
NCC1Cc2cccc(-c3cccc(F)c3)c2O1 (single isomer, unassigned; (+)) [Example 131] | pKi | 8.82
COc1cc2c(c(-c3ccccc3C)c1)OC(CN)C2 (racemic) | pKi | 8.15
